B1: Azoarcus group I ribozyme (parent)
chain: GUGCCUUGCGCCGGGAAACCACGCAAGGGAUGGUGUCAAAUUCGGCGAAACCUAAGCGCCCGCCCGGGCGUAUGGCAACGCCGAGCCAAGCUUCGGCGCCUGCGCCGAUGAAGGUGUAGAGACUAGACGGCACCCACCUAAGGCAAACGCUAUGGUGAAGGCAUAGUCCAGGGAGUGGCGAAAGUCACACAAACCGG

# Variants of: B1
# ASSAY METHOD TEXT: reverse-splicing fitness (ratio to wild type); higher = more active; in vitro selection; Mg2+ level not given
QUANTITY NAME: reverse-splicing fitness

# MUTANT NAME, QUANTITATIVE READOUT
data = [
    ("C82G A111G A120U A145G C150G C169U", 0.00737),
    ("C82A A111G A120C A145C C150U", 0.0161),
    ("C82G A111G A120U A145G C150A C169A U176G", 0.00251),
    ("A120C C150A C169A U176C", 0.011),
]
